# System: human lung tryptase
# experimental_details: Screening of tryptase substrates: responsiveness of fluorescent MCA substrates to tryptase
# Assay type: biochemical
# cond: relative value with the sensitivity of ^iBoc-Ala-Ala-Arg-MCA defined as 100; 100 μM substrate, 50 mM Tris-HCl pH 8.0, ex 365 nm / em 470 nm
observation_type: Tryptase activity

substance: ^iBoc-Abu-Abu-Arg-MCA
Tryptase activity: 69
//
substance: ^iBoc-Val-Pro-Arg-MCA
Tryptase activity: 20
//
substance: ^iBoc-Ala-Phe-Arg-MCA
Tryptase activity: 1
//
substance: ^iBoc-Ala-Val-Arg-MCA
Tryptase activity: 50
//
substance: ^iBoc-Phe-Ala-Arg-MCA
Tryptase activity: 62
//
substance: ^iBoc-Lys-Gly-Arg-MCA
Tryptase activity: 75

1. ^iBoc-Ala-Ala-Arg-MCA
2. ^iBoc-Phe-Gly-Arg-MCA
3. ^iBoc-Gly-Gly-Arg-MCA
4. ^iBoc-Val-Ala-Arg-MCA
Highest Tryptase activity first, then in falling order down to the smallest. Record the ranking as a list of labels in the requested order.
1, 4, 2, 3
(1: 100, 4: 53, 2: 5, 3: 0)
